SYSTEM: T1, D1 domain of human IL-2Rγ extracellular domain expressed with a C-terminal myc-myc-hexahistidine tag (human)
T1 construct: also called human IL2Rγ domain 1
T1 chain: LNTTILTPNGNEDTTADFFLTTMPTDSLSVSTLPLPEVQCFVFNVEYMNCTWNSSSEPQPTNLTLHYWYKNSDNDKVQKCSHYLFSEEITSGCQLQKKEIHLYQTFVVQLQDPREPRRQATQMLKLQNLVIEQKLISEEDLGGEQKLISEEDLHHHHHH
PROTOCOL: SPR, mAb captured on anti-hFc, 37 C
QUANTITY NAME: 100 nM Ag Bound (RU)
Please reply with the bare figure in RU and do not write the unit itself.

Input: Find the recorded 100 nM Ag Bound belonging to H4H12886P (antibody, human IgG4 S228P, kappa, V domains shown, human IgG4) VH: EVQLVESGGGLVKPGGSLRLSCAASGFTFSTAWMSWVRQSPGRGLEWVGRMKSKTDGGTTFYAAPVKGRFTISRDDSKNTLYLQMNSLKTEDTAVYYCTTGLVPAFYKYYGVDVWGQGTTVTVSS VL: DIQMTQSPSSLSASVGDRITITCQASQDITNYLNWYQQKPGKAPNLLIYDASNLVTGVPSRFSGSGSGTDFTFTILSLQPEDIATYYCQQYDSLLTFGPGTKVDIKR and report it.
Output: 0
